molecular target: human CCR8 (human, UniProt P51685 1-355); test: cell-based or functional assay
Each item that follows carries a reported hCCL1 (100 nM) residual response, Protocol #2, mAb 10 µg/mL.
MEASURED_METRIC: hCCL1 (100 nM) residual response, Protocol #2, mAb 10 µg/mL

{"columns": ["BINDER", "EXPERIMENTAL_RESULT"],
 "data": [
  ["3-50 (antibody, V domains shown) VH: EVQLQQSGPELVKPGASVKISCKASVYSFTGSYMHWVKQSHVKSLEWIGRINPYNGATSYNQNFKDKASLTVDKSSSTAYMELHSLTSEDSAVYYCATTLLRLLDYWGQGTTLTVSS VL: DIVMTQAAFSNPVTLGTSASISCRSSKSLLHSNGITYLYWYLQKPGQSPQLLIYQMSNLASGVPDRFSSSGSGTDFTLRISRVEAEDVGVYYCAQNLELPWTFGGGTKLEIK", "84%"],
  ["3-80 (antibody, human IgG1, kappa, V domains shown, humanized, human IgG1 kappa) VH: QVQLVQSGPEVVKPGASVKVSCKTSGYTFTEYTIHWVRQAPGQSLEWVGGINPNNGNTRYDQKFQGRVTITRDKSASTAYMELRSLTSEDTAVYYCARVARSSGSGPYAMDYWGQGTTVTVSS VL: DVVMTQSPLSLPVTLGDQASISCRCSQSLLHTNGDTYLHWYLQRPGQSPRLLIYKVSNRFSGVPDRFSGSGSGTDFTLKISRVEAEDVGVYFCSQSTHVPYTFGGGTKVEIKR", "32%"],
  ["3-76 (antibody, human IgG1, kappa, V domains shown, humanized, human IgG1 kappa) VH: EVQLVESGGGLVQPGRSLRLSCTASGFTFNTYAMNWVRQAPGKGLEWVARIRSKSNNYATYYAASVKGRFTISRDDSKSIAYLQMNSLKTEDTAVYYCVRGREAYYRYDGGYYAMDVWGQGTTVTVSS VL: DIVMTQAAPSLPVTPGESASISCRSSKSLLHSNGNTYLYWFLQKPGQSPQLLIYRMSNLASGVPDRFSGSGSGTAFTLKISRVEAEDVGVYYCMQHLEYPFTFGSGTKLEIKR", "64%"]
]}
